A collection of molecules and their measured DC50
# target: SMARCA2-HiBiT HeLa cells (protein which is expressed from the SMARCA2 gene) (Homo sapiens)
# Construct: protein which is expressed from the SMARCA2 and SMARCA4 genes; host or cells: HeLa (SMARCA2-HiBiT engineered line)
# Sequence (P51531 whole entry): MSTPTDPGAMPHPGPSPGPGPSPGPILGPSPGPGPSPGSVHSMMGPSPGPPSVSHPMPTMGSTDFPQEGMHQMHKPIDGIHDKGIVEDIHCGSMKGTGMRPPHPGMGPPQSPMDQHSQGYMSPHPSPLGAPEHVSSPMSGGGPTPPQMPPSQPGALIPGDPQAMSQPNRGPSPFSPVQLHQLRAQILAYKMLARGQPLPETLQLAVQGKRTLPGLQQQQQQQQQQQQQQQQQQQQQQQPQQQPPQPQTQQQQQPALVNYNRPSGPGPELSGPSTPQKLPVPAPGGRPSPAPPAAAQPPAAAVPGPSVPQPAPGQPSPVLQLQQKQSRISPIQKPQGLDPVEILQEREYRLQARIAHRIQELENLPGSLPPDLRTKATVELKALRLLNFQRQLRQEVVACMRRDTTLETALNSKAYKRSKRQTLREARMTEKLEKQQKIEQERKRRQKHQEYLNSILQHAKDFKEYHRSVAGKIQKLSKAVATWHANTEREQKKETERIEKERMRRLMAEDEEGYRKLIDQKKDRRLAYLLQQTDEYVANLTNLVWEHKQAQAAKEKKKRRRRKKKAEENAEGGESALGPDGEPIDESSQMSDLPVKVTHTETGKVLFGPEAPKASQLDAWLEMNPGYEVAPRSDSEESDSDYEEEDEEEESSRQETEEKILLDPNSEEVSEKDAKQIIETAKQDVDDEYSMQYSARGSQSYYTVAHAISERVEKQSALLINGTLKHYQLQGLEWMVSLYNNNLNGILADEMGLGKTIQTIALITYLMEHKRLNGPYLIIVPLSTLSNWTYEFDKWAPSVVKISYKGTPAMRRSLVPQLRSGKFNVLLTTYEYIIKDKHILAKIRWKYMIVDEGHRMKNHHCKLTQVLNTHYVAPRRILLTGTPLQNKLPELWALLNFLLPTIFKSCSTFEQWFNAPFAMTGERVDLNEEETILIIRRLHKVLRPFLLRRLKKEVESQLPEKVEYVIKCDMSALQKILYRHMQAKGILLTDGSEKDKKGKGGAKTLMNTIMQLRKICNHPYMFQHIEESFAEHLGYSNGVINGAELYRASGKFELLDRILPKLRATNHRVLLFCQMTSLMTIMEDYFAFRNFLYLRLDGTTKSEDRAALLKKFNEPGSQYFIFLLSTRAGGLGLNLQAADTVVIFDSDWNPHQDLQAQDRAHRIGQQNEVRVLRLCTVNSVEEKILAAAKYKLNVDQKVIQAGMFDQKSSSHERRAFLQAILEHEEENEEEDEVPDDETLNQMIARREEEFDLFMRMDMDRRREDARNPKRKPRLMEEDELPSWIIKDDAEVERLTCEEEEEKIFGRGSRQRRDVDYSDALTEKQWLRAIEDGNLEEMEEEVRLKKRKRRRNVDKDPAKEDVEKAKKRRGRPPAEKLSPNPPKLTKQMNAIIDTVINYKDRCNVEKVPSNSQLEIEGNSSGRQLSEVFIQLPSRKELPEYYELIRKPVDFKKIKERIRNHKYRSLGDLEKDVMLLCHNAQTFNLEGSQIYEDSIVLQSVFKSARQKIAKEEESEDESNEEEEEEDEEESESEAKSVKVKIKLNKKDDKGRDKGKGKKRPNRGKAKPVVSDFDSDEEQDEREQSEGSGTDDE
# assayNotes: SMARCA2 degradation assay (HiBiT-fusion HeLa cell line, 24 h, luminescence)
# Type: cell-based

Below are worked cases with known answers.
# molecule, propertyLabel, measuredValue
records = [
    ("Nc1nnc(-c2ccccc2O)cc1N1CCCN(c2ccnc(C#CCNC(=O)OCC(F)(F)F)n2)CC1 [Compound P-339]", "DC50", "50 to 500 nM"),
    ("CC(=O)NCC#Cc1nccc(N2CCCN(c3cc(-c4ccccc4O)nnc3N)CC2)n1 [Compound P-122]", "DC50", "500 to 5000 nM"),
    ("C[C@@H]1CCN(c2cc(-c3ccccc3O)nnc2N)CCN1c1ccnc(C#CCN2CC3CCC(C2)O3)n1 [Compound P-183]", "DC50", "50 to 500 nM"),
    ("Nc1nnc(-c2ccccc2O)cc1N1CCCN(c2ccnc(C#CCN3CCn4nccc4C3)n2)CC1 [Compound P-146]", "DC50", "50 to 500 nM"),
]

Next up:
Give the measured DC50 of C[C@@H]1CCN(c2cc(-c3ccccc3O)nnc2N)CCN1c1ccc(C#N)c(C#CCN2CC(F)(F)[C@H]2C)n1 [Compound P-413] .
50 to 500 nM

Hello, the source for this data is patent US20260265238A1, in case you need it.
